Tested On: Human recombinant MMP-2 (Homo sapiens, UniProt P08253)
Sequence (P08253 110-660): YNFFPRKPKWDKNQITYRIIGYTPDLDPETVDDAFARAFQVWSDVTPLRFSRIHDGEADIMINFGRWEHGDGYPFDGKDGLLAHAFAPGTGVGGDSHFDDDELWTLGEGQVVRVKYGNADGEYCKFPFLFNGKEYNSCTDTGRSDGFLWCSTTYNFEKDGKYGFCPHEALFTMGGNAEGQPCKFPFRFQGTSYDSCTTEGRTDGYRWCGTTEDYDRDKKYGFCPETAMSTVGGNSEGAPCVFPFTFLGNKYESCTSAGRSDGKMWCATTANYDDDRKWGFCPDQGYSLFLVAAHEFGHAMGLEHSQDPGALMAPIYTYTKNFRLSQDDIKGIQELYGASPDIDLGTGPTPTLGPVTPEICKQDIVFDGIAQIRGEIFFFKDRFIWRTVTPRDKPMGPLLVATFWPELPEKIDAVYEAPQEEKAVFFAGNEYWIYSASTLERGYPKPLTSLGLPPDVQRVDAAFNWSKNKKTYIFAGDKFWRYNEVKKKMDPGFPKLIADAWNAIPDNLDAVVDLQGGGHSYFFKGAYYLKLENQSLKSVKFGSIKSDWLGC
Test: Inhibition of MMP-2, fluorogenic substrate hydrolysis
Format: biochemical
# pKi per entry
In textbook form, pKi equals minus log to base ten of the concentration in mol/L.

Molecule: C[C@H]([C@@H]1CS1)S(=O)(=O)c1ccc(Oc2ccccc2)cc1 [Compound 5d]
Assay Metric: pKi
Endpoint Value: 6.41

Next item in the queue.
## Input Look up and state reported pKi for C[C@H]([C@H]1CS1)S(=O)(=O)c1ccc(Oc2ccccc2)cc1 [Compound 5c]
## Output 5.39

###

Tested On: catalytic domain of human recombinant MMP-1 (Homo sapiens, UniProt P03956)
Sequence (P03956 100-269 limits assumed): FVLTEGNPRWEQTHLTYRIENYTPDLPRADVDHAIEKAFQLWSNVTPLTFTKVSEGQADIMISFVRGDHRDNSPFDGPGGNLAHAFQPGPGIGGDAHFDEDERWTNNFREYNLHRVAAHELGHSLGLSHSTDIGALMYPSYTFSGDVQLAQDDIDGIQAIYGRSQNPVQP
Test: Inhibition of MMP-1 catalytic domain, fluorogenic substrate hydrolysis
Format: biochemical
Assay Metric: Ki

## Input Look up and state reported Ki for C[C@H]([C@@H]1CS1)S(=O)(=O)c1ccc(Oc2ccccc2)cc1 [Compound 5d]
## Output > 60 µM

###

Tested On: Human recombinant MMP-9 (Homo sapiens)
Sequence (P14780 94-707): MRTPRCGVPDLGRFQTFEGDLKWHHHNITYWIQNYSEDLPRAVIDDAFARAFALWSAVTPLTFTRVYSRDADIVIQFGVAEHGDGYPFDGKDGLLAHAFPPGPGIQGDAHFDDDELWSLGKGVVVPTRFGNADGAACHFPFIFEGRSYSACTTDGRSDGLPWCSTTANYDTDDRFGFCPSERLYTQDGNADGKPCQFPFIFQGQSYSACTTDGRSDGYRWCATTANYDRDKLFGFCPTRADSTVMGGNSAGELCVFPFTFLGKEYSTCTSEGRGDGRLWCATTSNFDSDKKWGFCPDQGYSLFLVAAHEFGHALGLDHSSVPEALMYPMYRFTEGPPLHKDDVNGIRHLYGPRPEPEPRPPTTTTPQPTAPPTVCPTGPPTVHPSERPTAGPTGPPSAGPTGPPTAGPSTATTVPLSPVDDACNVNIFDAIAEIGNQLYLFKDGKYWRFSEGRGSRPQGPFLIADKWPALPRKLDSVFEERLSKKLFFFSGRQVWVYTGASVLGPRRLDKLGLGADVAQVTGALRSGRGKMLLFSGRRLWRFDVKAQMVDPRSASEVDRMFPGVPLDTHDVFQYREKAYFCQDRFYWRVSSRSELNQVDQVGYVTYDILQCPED
Test: Inhibition of MMP-9, fluorogenic substrate hydrolysis
Assay type: biochemical
Assay Metric: pKi
In textbook form, pKi equals minus log to base ten of the concentration in mol/L.

## Input Look up and state reported pKi for C[C@H]([C@@H]1CS1)S(=O)(=O)c1ccc(Oc2ccccc2)cc1 [Compound 5d]
## Output 5.48

###

Tested On: catalytic domain of human recombinant MMP-14 (MT1-MMP) (Homo sapiens, UniProt P50281)
Test: Inhibition of MMP-14 catalytic domain, fluorogenic substrate hydrolysis
Assay type: biochemical
Condition Context: MMP-14cat
# pKi per entry
In textbook form, pKi equals minus log to base ten of the concentration in mol/L.

Molecule: C[C@@H]([C@H]1CS1)S(=O)(=O)c1ccc(Oc2ccccc2)cc1 [Compound 5b]
pKi: 6.13

Next item in the queue.
## Input Give pKi; test system catalytic domain of human recombinant MMP-14 (MT1-MMP) (Homo sapiens, UniProt P50281); molecule CC(C1CS1)S(=O)(=O)c1ccc(Oc2ccc(O)cc2)cc1 (centres unmarked) [Compound 13b]
## Output 5.68

###

Tested On: Human recombinant MMP-2 (Homo sapiens, UniProt P08253)
Test: Inhibition of MMP-2, fluorogenic substrate hydrolysis
Format: biochemical
Condition Context: MMP-2
Assay Metric: pKi
In textbook form, pKi equals minus log to base ten of the concentration in mol/L.

# example entries with known answers
Compound: C[C@@H]([C@H]1CS1)S(=O)(=O)c1ccc(Oc2ccccc2)cc1
Tested On: Human recombinant MMP-2 (Homo sapiens, UniProt P08253)
pKi: 6.74
--
Compound: CC(C1CS1)S(=O)(=O)c1ccc(Oc2ccc(O)cc2)cc1 (stereo not drawn) [Compound 13b]
Tested On: Human recombinant MMP-2 (Homo sapiens, UniProt P08253)
pKi: 6.66

Next item in the queue.
## Input Look up and state reported pKi for C[C@@H]([C@H]1C[S+]1[O-])S(=O)(=O)c1ccc(Oc2ccccc2)cc1 (stereo partly drawn)
## Output 4.70

###

Tested On: Human recombinant active MMP-7 (Homo sapiens)
Sequence (P09237 95-267): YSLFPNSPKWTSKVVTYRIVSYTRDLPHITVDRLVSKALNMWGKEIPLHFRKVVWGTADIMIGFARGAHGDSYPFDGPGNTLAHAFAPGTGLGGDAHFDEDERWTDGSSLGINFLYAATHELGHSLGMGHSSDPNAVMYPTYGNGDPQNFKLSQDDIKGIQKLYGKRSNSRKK
Test: Inhibition of MMP-7, fluorogenic substrate hydrolysis
Type: biochemical
Condition Context: read-out: Inhibition (Ki column); MMP-7; up to 60 μM
pKi: −log10 of the molar value.
Assay Metric: pKi

## Input Look up and state reported pKi for C[C@@H]([C@H]1CS1)S(=O)(=O)c1ccc(Oc2ccccc2)cc1
## Output < 4.22

###

Tested On: Human recombinant MMP-2 (Homo sapiens, UniProt P08253)
Sequence (P08253 110-660): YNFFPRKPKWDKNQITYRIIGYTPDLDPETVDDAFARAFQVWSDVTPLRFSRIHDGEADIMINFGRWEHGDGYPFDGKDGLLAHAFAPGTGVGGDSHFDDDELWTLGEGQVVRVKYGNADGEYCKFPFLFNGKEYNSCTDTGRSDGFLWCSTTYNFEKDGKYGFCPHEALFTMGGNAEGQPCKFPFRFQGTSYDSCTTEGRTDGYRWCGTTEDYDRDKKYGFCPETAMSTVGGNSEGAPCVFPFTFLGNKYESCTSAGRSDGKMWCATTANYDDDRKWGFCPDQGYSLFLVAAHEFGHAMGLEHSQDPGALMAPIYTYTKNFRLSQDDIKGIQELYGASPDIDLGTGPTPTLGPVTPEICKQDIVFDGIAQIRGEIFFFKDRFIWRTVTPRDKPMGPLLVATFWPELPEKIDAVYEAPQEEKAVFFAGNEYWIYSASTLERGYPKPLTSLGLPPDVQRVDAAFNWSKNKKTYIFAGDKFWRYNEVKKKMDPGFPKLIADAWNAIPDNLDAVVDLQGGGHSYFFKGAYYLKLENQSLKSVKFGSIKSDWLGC
Test: Inhibition of MMP-2, fluorogenic substrate hydrolysis
Format: biochemical
Condition Context: MMP-2; linear competitive inhibitors
Assay Metric: pKi
In textbook form, pKi equals minus log to base ten of the concentration in mol/L.

## Input Look up and state reported pKi for C[C@@H]([C@@H]1CS1)S(=O)(=O)c1ccc(Oc2ccccc2)cc1 [Compound 5a]
## Output 5.14

###

# Ki per entry
Tested On: Human recombinant MMP-9 (Homo sapiens)
Test: Inhibition of MMP-9, fluorogenic substrate hydrolysis
Assay type: biochemical
Condition Context: MMP-9
Please respond with the number in µM and leave the unit unwritten.

Compound: CC(C1CS1)S(=O)(=O)c1ccc(Oc2ccc(O)cc2)cc1 (centres unmarked) [Compound 13b]
Ki (µM): 1.9

Next item in the queue.
## Input Look up and state reported Ki for C[C@@H]([C@H]1CS1)S(=O)(=O)c1ccc(Oc2ccccc2)cc1 [Compound 5b]
## Output 3.5

Value source: paper PMC2901852
